The following binders are listed with their measured Kd values.
System Tested: feline FcRn complex (FcRn-α subunit and β-microglobulin) (feline)
Experiment: SPR (Biacore), FcRn on SA chip, pH 6

| Binder | Unit String | Kd |
| --- | --- | --- |
| feline IgG1a mutant ID No. 285: S252Y, Q311W, L314K, S434Y (antibody, part only; not given: Variable domains, not shown: another chain or arm of the molecule) constant: ASTTAPSVFPLAPSCGTTSGATVALACLVLGYFPEPVTVSWNSGALTSGVHTFPAVLQASGLYSLSSMVTVPSSRWLSDTFTCNVAHPPSNTKVDKTVRKTDHPPGPKPCDCPKCPPPEMLGGPSIFIFPPKPKDTLYISRTPEVTCLVVDLGPDDSDVQITWFVDNTQVYTAKTSPREEQFNSTYRVVSVLPILHWDWKKGKEFKCKVNSKSLPSPIERTISKAKGQPHEPQVYVLPPAQEELSRNKVSVTCLIKSFHPPDIAVEWEITGQPEPENNYRTTPPQLDSDGTYFVYSKLSVDRSHWQRGNTYTCSVSHEALHYHHTQKSLTQSPGK | nM | 1.21 |
| feline IgG1a mutant ID No. 340: S252Y, S428M, S434F, Q311R (antibody, part only; not given: Variable domains, not shown: another chain or arm of the molecule) constant: ASTTAPSVFPLAPSCGTTSGATVALACLVLGYFPEPVTVSWNSGALTSGVHTFPAVLQASGLYSLSSMVTVPSSRWLSDTFTCNVAHPPSNTKVDKTVRKTDHPPGPKPCDCPKCPPPEMLGGPSIFIFPPKPKDTLYISRTPEVTCLVVDLGPDDSDVQITWFVDNTQVYTAKTSPREEQFNSTYRVVSVLPILHRDWLKGKEFKCKVNSKSLPSPIERTISKAKGQPHEPQVYVLPPAQEELSRNKVSVTCLIKSFHPPDIAVEWEITGQPEPENNYRTTPPQLDSDGTYFVYSKLSVDRSHWQRGNTYTCSVMHEALHFHHTQKSLTQSPGK | nM | 0.025 |
| feline IgG1a mutant ID No. 317: S428M, A431K, S434P (antibody, part only; not given: variable domains and light chain, not shown: another chain or arm of the molecule) constant: ASTTAPSVFPLAPSCGTTSGATVALACLVLGYFPEPVTVSWNSGALTSGVHTFPAVLQASGLYSLSSMVTVPSSRWLSDTFTCNVAHPPSNTKVDKTVRKTDHPPGPKPCDCPKCPPPEMLGGPSIFIFPPKPKDTLSISRTPEVTCLVVDLGPDDSDVQITWFVDNTQVYTAKTSPREEQFNSTYRVVSVLPILHQDWLKGKEFKCKVNSKSLPSPIERTISKAKGQPHEPQVYVLPPAQEELSRNKVSVTCLIKSFHPPDIAVEWEITGQPEPENNYRTTPPQLDSDGTYFVYSKLSVDRSHWQRGNTYTCSVMHEKLHPHHTQKSLTQSPGK | nM | 22.2 |
| feline IgG1a mutant ID No. 364: S252Y, S434R, D401R (antibody, part only; not given: Variable domains, not shown: another chain or arm of the molecule) constant: ASTTAPSVFPLAPSCGTTSGATVALACLVLGYFPEPVTVSWNSGALTSGVHTFPAVLQASGLYSLSSMVTVPSSRWLSDTFTCNVAHPPSNTKVDKTVRKTDHPPGPKPCDCPKCPPPEMLGGPSIFIFPPKPKDTLYISRTPEVTCLVVDLGPDDSDVQITWFVDNTQVYTAKTSPREEQFNSTYRVVSVLPILHQDWLKGKEFKCKVNSKSLPSPIERTISKAKGQPHEPQVYVLPPAQEELSRNKVSVTCLIKSFHPPDIAVEWEITGQPEPENNYRTTPPQLDSRGTYFVYSKLSVDRSHWQRGNTYTCSVSHEALHRHHTQKSLTQSPGK | nM | 0.732 |

Source: patent US20240400708A1
